Provide the recorded melting point for the entries that follow.

Some solved entries appear below for comparison.
- compound: "FC(F)OC(Cl)C(F)(F)F (centres undefined)"
  reported-endpoint: "melting point"
  observed-result: "-108 °C"
- compound: "Cc1cc(C)c2cccc(OCc3c(Cl)ccc(S(=O)(=O)N4CCC[C@H]4C(=O)NC4CCN(C(=O)CCN(C=NC(=O)OC(C)(C)C)NC(=O)OC(C)(C)C)CC4)c3Cl)c2n1"
  reported-endpoint: "melting point"
  observed-result: "115 to 117 °C"
- compound: "O=P(Oc1c(Br)cc(Br)cc1Br)(Oc1c(Br)cc(Br)cc1Br)Oc1c(Br)cc(Br)cc1Br"
  reported-endpoint: "melting point"
  observed-result: "223 to 226 °C"
- compound: "Cc1c(O)cc(C(C)(C)C)c(O)c1C(=O)Nc1ccc(S(=O)(=O)C(F)(F)F)cc1Cl"
  reported-endpoint: "melting point"
  observed-result: "163 to 166 °C"
- compound: "OP(=S)(C(F)(F)C(F)(F)C(F)(F)C(F)(F)C(F)(F)C(F)(F)C(F)(C(F)(F)F)C(F)(F)F)C(F)(F)C(F)(F)C(F)(F)C(F)(F)C(F)(F)C(F)(F)C(F)(C(F)(F)F)C(F)(F)F"
  reported-endpoint: "melting point"
  observed-result: "> 300 °C"
- compound: "Cc1cc(Oc2ccc3nc(COc4ccc(CC(Nc5ccccc5C(=O)c5ccccc5)C(=O)O)cc4)n(C)c3c2)cc(C)c1NC(=O)Nc1ccc(C(F)(F)F)cc1 (centres undefined)"
  reported-endpoint: "melting point"
  observed-result: "165 to 172 °C"

Please look at the items below and tell me melting point for each one, in order.
1. CCCCCCCCCCCCCC(=O)NC1C(OCC(=O)O)OC(COC2OC(CO)C(OP(=O)(O)O)C(OC(=O)CNC(=O)CCCCCCCCCCC)C2NC(=O)CCCCCCCCCCCCC)C(O)C1OC(=O)CCCCCCCCCCCCC (centres undefined)
2. CCO/N=C(\C)[C@H]1CC[C@H]2[C@@H]3CCC4=CC(=O)CC[C@]4(C)[C@H]3CC[C@]12C
3. Brc1ccc2c(c1)C(CCCCCCCCCCn1c3ccccc3c3ccccc31)(CCCCCCCCCCn1c3ccccc3c3ccccc31)c1cc(Br)ccc1-2

[out]
150 to 155 °C
127 to 129 °C
94 to 96 °C

Could you report melting point for every entry in the following list?
1. CCC1(CC)c2cc(-c3nc4ccccc4s3)ccc2-c2ccc(N(c3ccc4c(c3)C(CC)(CC)c3cc(-c5nc6ccccc6s5)ccc3-4)C3CCCCC3)cc21
2. Cc1cc(C(C)(C)C)c(O)c(C)c1CCCCCCCCCCCCCCCCCCCOCCCCCCCCCCCCCCCCCCCc1c(C)cc(C(C)(C)C)c(O)c1C
3. CC(=O)OCC1OC(OC2C(COC(C)=O)OC(OC3C(CO)OC(OCCBr)C(O)C3O)C(OC(C)=O)C2OC(C)=O)C(OC(C)=O)C(OC(C)=O)C1OC(C)=O (centres undefined)
4. COc1cccc(-c2cc3ncnc(Nc4ccc5[nH]ccc5c4)c3s2)c1
5. O=[N+]([O-])c1ccccc1N1CCc2cc(Br)ccc21

[out]
262 to 264 °C
52 °C
178 to 180 °C
160 to 168 °C
112 to 114 °C

The following compounds each have a reported value; give each one's melting point.
1. C=CC1=C(C)c2cc3[nH]c(cc4nc(cc5[nH]c(cc1n2)c(C)c5CCC(=O)OCCCCCCN(C)C)C(CCC(=O)OCCCCCCN(C)C)=C4C)c(C)c3C=C
2. CCCCCCCCCCCCCCCCCCSCCOP(=O)(Cc1cc(C(C)(C)C)c(O)c(C)c1C)OCCSCCCCCCCCCCCCCCCCCC
3. COc1cc(OC)c(/C=C/C(c2ccc(OC)c(NC(=O)C(F)(F)C(F)(F)F)c2)S(=O)(=O)C(/C=C/c2c(OC)cc(OC)cc2OC)c2ccc(OC)c(NC(=O)C(F)(F)C(F)(F)F)c2)c(OC)c1 (centres undefined)
4. CCCCN(c1nc(N(CCCC)C2CC(C)(C)N(OC3CCCCC3)C(C)(C)C2)nc(N(CCCC)C2CC(C)(C)N(OC3CCCCC3)C(C)(C)C2)n1)C1CC(C)(C)N(OC2CCCCC2)C(C)(C)C1
5. CC(C)CC(NC(=O)OCc1ccccc1)C(=O)NC(C)C(=O)NC(CCCN(C(=N)NC(=O)OCc1ccccc1)C(=O)OCc1ccccc1)C(=O)Oc1cccc2ccccc12 (centres undefined)
6. CCCCc1nc2c(N)nc3ccccc3c2n1CCCCNC(=O)Nc1ccc(Oc2ccc(NC(=O)NCCCCn3c(CCCC)nc4c(N)nc5ccccc5c43)cc2)cc1
7. CC(=O)OC(COc1ccc(C(C)(C)c2ccc(OCC(CN3C(=O)NC4(CC(C)(C)N(C(C)=O)C(C)(C)C4)C3=O)OC(C)=O)cc2)cc1)CN1C(=O)NC2(CC(C)(C)N(C(C)=O)C(C)(C)C2)C1=O (centres undefined)
8. CCCCCCCCCCCCSc1c(SCCCCCCCCCCCC)c(SCCCCCCCCCCCC)c(SCCCCCCCCCCCC)c(SCCCCCCCCCCCC)c1SCCCCCCCCCCCC

[out]
["160 to 165 °C", "71 to 73 °C", "179 to 180 °C", "189 to 194 °C", "179 to 183 °C", "152 to 156 °C", "147 to 149 °C", "44 to 45 °C"]

Hi! Can you tell me melting point for each of these compounds?
1. CC1(C)CC(Oc2nc(N(C3CC(C)(C)N(O)C(C)(C)C3)C3CC(C)(C)N(O)C(C)(C)C3)nc(N(C3CC(C)(C)N(O)C(C)(C)C3)C3CC(C)(C)N(O)C(C)(C)C3)n2)CC(C)(C)N1O
2. O=C1OC(=O)c2ccc3c4c(ccc1c24)C(=O)OC3=O

[out]
233 to 236 °C
300 °C

----------
reported-endpoint: melting point

Example molecules with recorded melting point:
- molecule: "C=CCOCC(=O)Nc1c(I)c(C(=O)NC(COC(C)=O)COC(C)=O)c(I)c(C(=O)NC(COC(C)=O)COC(C)=O)c1I"
  observed-result: "214 to 216 °C"
- molecule: "CCCc1[nH]c2ccccc2c1C1(c2ccc(N(CC)CC)cc2OCCOCCOc2cc(N(CC)CC)ccc2C2(c3c(CCC)[nH]c4ccccc34)OC(=O)c3ccccc32)OC(=O)c2ccccc21 (stereo unspecified)"
  observed-result: "191 to 194 °C"
- molecule: "CS(=O)(=O)C1CCN(Cc2ccc(COc3cccc4c3CN(C3CCC(=O)NC3=O)C4=O)cc2)CC1 (stereo unspecified)"
  observed-result: "173 to 175 °C"
- molecule: "CCCc1[nH]c2ccccc2c1C1(c2ccc(N(CC)CC)cc2OCCCCCCCCCCOc2cc(N(CC)CC)ccc2C2(c3c(CCC)[nH]c4ccccc34)OC(=O)c3ccccc32)OC(=O)c2ccccc21 (stereo unspecified)"
  observed-result: "116 to 118 °C"
- molecule: "O=C(c1ccccc1)c1ccc(C(Cl)(Cl)Cl)cc1"
  observed-result: "109 to 111 °C"

Proceeding to the next molecule to report its melting point.
[in] Endpoint output: melting point of C=CC(=O)OCCCCCCOc1ccc(C(=O)Oc2ccc(OC(=O)c3ccc(OCCCCCCOC(=O)C=C)cc3)c(C(=O)OCCCCCCCCOC(=O)c3ccco3)c2)cc1 . Value?
[out] 36 °C

----------
So I've got a bunch of compounds here, and I need their melting point values.

Use these answered entries as a reference point.
- compound: "CCCCC1(CC)CS(=O)(=O)c2ccc(N(C)C)cc2C(c2cccc(NC(=O)COCCOCCOCC(=O)NCc3ccc(C4C(CCC(O)c5ccccc5)C(=O)N4c4ccc(F)cc4)cc3)c2)C1O (stereo not given)"
  observed-result: "120 °C"
- compound: "CCOC(=O)C(C)c1cc(C)c(C(=O)c2ccc(Cl)cc2)n1C (stereo not given)"
  observed-result: "88 to 90 °C"
- compound: "CCCc1nc(C(C)(C)O)c(C(=O)OC2OC(=O)c3ccccc32)n1Cc1ccc(-c2ccccc2-c2nnnn2C(c2ccccc2)(c2ccccc2)c2ccccc2)cc1 (stereo not given)"
  observed-result: "118 to 120 °C"

I have 7 compounds here; please give me melting point for each one.
1. COC(=O)COc1cc(F)ccc1[N+](=O)[O-]
2. COc1ccc(C(/C=C/c2cc(I)c(OC)c(OC)c2)S(=O)(=O)C(/C=C/c2cc(I)c(OC)c(OC)c2)c2ccc(OC)cc2)cc1 (stereo not given)
3. COC(=O)c1ccccc1CN1C(=O)C2(COc3cc4c(cc32)OCO4)c2ccccc21 (stereo not given)
4. COCCOc1ccc(/C=C(\C)C(=O)NS(=O)(=O)CC(F)(F)F)c(Oc2ncc(C(F)(F)F)cc2Cl)c1
5. Cc1c(Nc2c(C#N)cnc3sc(C4=CCN(C)CC4)cc23)ccc2[nH]ccc12
6. CN=S(=O)(c1nc(-c2ccc(F)cc2)cs1)C(C)c1ccc(C(F)(F)F)nc1 (stereo not given)
7. CC1(C)CC(N(c2nc(N(C3CC(C)(C)NC(C)(C)C3)C3CC(C)(C)NC(C)(C)C3)nc(N(C3CC(C)(C)NC(C)(C)C3)C3CC(C)(C)NC(C)(C)C3)n2)C2CC(C)(C)NC(C)(C)C2)CC(C)(C)N1

[out]
1: 85 to 87 °C; 2: 160 to 161 °C; 3: 166 to 167 °C; 4: 159 to 160 °C; 5: 230 °C; 6: 89 to 94 °C; 7: 325 to 330 °C

// for each compound below, give its melting point
1. CSC1=NCc2cc(Cl)ccc2-n2c(C)nnc21
2. CCCC(=O)c1c[nH]c2ccc(COC(=O)c3ccccc3)cc2c1=O
3. Cc1nn(-c2ccc(C(F)(F)F)cn2)cc1CCCOc1cccc(OC(C)(C)C(=O)O)c1
4. CN(C)CCCN=S(=O)(c1ccccc1)c1cccs1 (stereo not given)

[out]
248 to 250 °C
220 to 223 °C
107 to 108 °C
125 °C

[in] # input compound: CCCCCCCCCCCCCCCC(=O)C(O)[C@](O)(C(=O)CCCCCCCCCCCCCCC)[C@@H](O)[C@H](O)[C@@](O)(C(=O)CCCCCCCCCCCCCCC)C(O)C(=O)CCCCCCCCCCCCCCC (stereo not given in full) ; wanted: its melting point
[out] 72 to 74 °C

Data provenance: a melting point compilation (Tetko et al.)
